testSystem: Recombinant full-length human IDO1 (Homo sapiens)
Construct: Recombinant full-length human IDO1 with a N-terminal hexahistidine tag; hexahistidine (His6) (N); made in house; host or cells: E. coli
Sequence (P14902 whole entry): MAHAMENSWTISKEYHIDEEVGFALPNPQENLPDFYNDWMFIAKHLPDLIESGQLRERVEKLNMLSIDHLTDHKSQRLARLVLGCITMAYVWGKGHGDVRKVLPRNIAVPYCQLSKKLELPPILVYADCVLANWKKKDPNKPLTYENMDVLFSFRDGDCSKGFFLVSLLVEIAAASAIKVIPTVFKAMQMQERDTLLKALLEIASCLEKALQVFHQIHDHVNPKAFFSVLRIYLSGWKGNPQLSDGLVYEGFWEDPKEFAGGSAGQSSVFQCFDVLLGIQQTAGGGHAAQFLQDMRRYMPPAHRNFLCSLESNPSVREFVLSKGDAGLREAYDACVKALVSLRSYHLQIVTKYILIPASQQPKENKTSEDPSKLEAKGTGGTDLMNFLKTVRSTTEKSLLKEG
assayProtocol: IDO1 enzymatic assay (NFK quantified by LCMS)
Format: biochemical
conditionsUsed: 2 nM enzyme, 5 μM L-tryptophan, pH6.5, 30 minutes pre-incubation at RT; mean values when measured multiple times; read-out: hIDO activity (IC50 in nM)
reportedEndpoint: IC50 (nM)

Examples with their reported IC50 follow.
compound: Cc1c([C@H](O)c2c(C3CC3)sc3cncn23)nnn1-c1ccccc1 [Example 101a]
testSystem: Recombinant full-length human IDO1 (Homo sapiens)
IC50 (nM): 6.31

compound: COC(=O)Nc1ccc(-n2cc(C(O)c3c(C4CC4)sc4cncn34)nn2)cc1 (racemic)
testSystem: Recombinant full-length human IDO1 (Homo sapiens)
IC50 (nM): 11.1

compound: COc1cc(F)c(-n2cc(C(O)c3c(C4CC4)sc4cncn34)nn2)cc1F (racemic)
testSystem: Recombinant full-length human IDO1 (Homo sapiens)
IC50 (nM): 2.99

compound: COc1ccc(-n2cc(C(O)c3c(C4=CCCC4)sc4cncn34)nn2)cc1 (racemic)
testSystem: Recombinant full-length human IDO1 (Homo sapiens)
IC50 (nM): 85.6

(A) CCc1sc2cncn2c1C(O)c1cn(-c2ccccc2)nn1 (racemic)
(B) COc1cc(-n2cc(C(O)c3c(C4CC4)sc4cncn34)nn2)cc(C#N)c1OC (racemic)
Returns: the argument ( A or B ) having the larger IC50. Reply with the label of the item you choose. B

(a) CC(C)C(=O)Nc1ccc(-n2cc(C(O)c3c(C4CC4)sc4cncn34)cn2)cc1 (racemic)
(b) CCNC(=O)Nc1ccc(-n2cc(C(O)c3c(CC)sc4cncn34)nn2)cc1OC (racemic)
Could you tell me which of a and b has the lower IC50 reading? Reply with the label of the item you choose. b

(P) OC(c1cn(-c2cn[nH]c2)nn1)c1c(C2CC2)sc2cncn12 (racemic)
(Q) Cc1ccc(-n2cc(C(O)c3c(C4CC4)sc4cncn34)nn2)cc1O (racemic)
Could you tell me which of P and Q has the lower IC50 reading? Reply with the label of the item you choose. Q

* * *

testSystem: Recombinant full-length human IDO1 (Homo sapiens)
Construct: Recombinant full-length human IDO1 with a N-terminal hexahistidine tag; hexahistidine (His6) (N); made in house; host or cells: E. coli
assayProtocol: IDO1 enzymatic assay (NFK quantified by LCMS)
Assay type: biochemical
conditionsUsed: 2 nM enzyme, 5 μM L-tryptophan, pH6.5, 30 minutes pre-incubation at RT; mean values when measured multiple times; read-out: hIDO activity (IC50 in nM)
reportedEndpoint: IC50 (nM)

Examples with their reported IC50 follow.
compound: OC(c1cn(-c2ccc(OCC3CCOCC3)cc2)nn1)c1c(C2CC2)sc2cncn12 (racemic)
reportedEndpoint: IC50
unitAnnotation: nM
testValue: 20.7
//
compound: CCNS(=O)(=O)c1ccc(-n2cc(C(O)c3c(C4CC4)sc4cncn34)nn2)cc1 (racemic)
reportedEndpoint: IC50
unitAnnotation: nM
testValue: 53

(I) COc1ccc(-n2cc(C(O)c3c(C=C(C)C)sc4cncn34)nn2)cc1 (racemic)
(II) CCCCNC(=O)Nc1ccc(-n2cc(C(O)c3c(CC)sc4cncn34)nn2)cc1 (racemic)
Returns: the argument ( I or II ) having the larger IC50. Reply with the label of the item you choose. I
(I: 83.2 nM, II: 25.6 nM)

* * *

testSystem: Recombinant human TDO comprising amino acids 19-407 (Homo sapiens, UniProt P48775)
Construct: Recombinant human TDO comprising amino acids 19-407 with a N-terminal hexahistidine tag; hexahistidine (His6) (N); made in house; host or cells: E. coli
Sequence (P48775 19-406 limits assumed): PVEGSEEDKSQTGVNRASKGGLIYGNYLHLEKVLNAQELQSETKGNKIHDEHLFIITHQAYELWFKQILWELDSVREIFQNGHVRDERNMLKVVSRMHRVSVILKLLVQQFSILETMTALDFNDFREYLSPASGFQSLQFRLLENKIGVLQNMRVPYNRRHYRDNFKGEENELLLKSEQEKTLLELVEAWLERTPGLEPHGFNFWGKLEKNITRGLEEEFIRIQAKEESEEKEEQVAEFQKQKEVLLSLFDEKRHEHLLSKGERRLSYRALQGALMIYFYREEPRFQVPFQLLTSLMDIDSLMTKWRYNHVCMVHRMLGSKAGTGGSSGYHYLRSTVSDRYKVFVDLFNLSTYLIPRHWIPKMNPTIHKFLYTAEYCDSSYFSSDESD
assayProtocol: TDO2 enzymatic assay (NFK quantified by LCMS)
Format: biochemical
conditionsUsed: 15 nM enzyme, 200 μM L-tryptophan, pH7, 30 minutes pre-incubation at RT; mean values when measured multiple times; read-out: hTDO activity (IC50 in nM)
reportedEndpoint: IC50 (nM)

Examples with their reported IC50 follow.
compound: CCc1sc2cncn2c1C(O)c1cn(-c2ccc3[nH]c(=O)oc3c2)nn1 (racemic) [Example 181]
IC50 / nM: 4330
--
compound: CCc1sc2cncn2c1C(O)c1cn(-c2ccc3[nH]c(=O)[nH]c3c2)nn1 (racemic) [Example 112]
IC50 / nM: 6220
--
compound: OC(c1cnn(-c2cccnc2)c1)c1c(C2CC2)sc2cncn12 (racemic) [Example 260]
IC50 / nM: 6510

(I) OC(c1ccc(-c2ccccc2C(F)(F)F)s1)c1c(C2CC2)sc2cncn12 (racemic) [Example 170]
(II) Cn1ccc2cc(-n3cc(C(O)c4c(C5CC5)sc5cncn45)cn3)cnc21 (racemic) [Example 229]
Returns: the argument ( I or II ) having the larger IC50. Reply with the label of the item you choose. I
(I: 3820 nM, II: 1440 nM)

* * *

testSystem: Recombinant human TDO comprising amino acids 19-407 (Homo sapiens, UniProt P48775)
Construct: Recombinant human TDO comprising amino acids 19-407 with a N-terminal hexahistidine tag; hexahistidine (His6) (N); made in house; host or cells: E. coli
assayProtocol: TDO2 enzymatic assay (NFK quantified by LCMS)
Assay type: biochemical
conditionsUsed: 15 nM enzyme, 200 μM L-tryptophan, pH7, 30 minutes pre-incubation at RT; mean values when measured multiple times; read-out: hTDO activity (IC50 in nM)
reportedEndpoint: IC50

Examples with their reported IC50 follow.
compound: CC(C)(O)CCOc1ccc(-n2cc([C@H](O)c3c(-c4ccccc4)sc4cncn34)nn2)cc1Cl [Example 268a]
IC50: 10000 nM
//
compound: COC(=O)COc1ccc(-n2cc(C(O)c3c(C4CC4)sc4cncn34)nn2)cn1 (racemic)
IC50: > 10200 nM
//
compound: CCc1sc2cncn2c1[C@@H](O)c1cn(-c2ccc(NC(=O)OC)cc2)nn1 [Example 49a]
IC50: 1040 nM
//
compound: C=CCNC(=O)c1ccc(-n2cc(C(O)c3c(C4CC4)sc4cncn34)nn2)cc1 (racemic)
IC50: > 10200 nM
//
compound: CCc1sc2cncn2c1C(O)c1cn(-c2ccc(O)c(Cl)c2)nn1 (racemic)
IC50: 1210 nM
//
compound: Cc1sc2cncn2c1C(O)c1cnc(-c2ccccc2)s1 (racemic)
IC50: > 10200 nM
//
compound: OC[C@H](O)COc1ccc(-n2cc(C(O)c3c(C4CC4)sc4cncn34)nn2)cc1 (mixture of isomers)
IC50: > 10200 nM

The reported value for CC(C)(O)COc1ccc(-n2cc([C@H](O)c3c(C4CC4)sc4cncn34)nn2)cc1 [Example 139a] in terms of IC50 is > 10200 nM

* * *

testSystem: Recombinant human TDO comprising amino acids 19-407 (Homo sapiens)
Construct: Recombinant human TDO comprising amino acids 19-407 with a N-terminal hexahistidine tag; hexahistidine (His6) (N); made in house; host or cells: E. coli
assayProtocol: TDO2 enzymatic assay (NFK quantified by LCMS)
Format: biochemical
conditionsUsed: 15 nM enzyme, 200 μM L-tryptophan, pH7, 30 minutes pre-incubation at RT; mean values when measured multiple times; read-out: hTDO activity (IC50 in nM)
Each item that follows carries a reported IC50.

Examples with their reported IC50 follow.
molecule: OCc1ccc(-n2cc(C(O)c3c(C4CC4)sc4cncn34)nn2)cc1 (racemic)
reportedEndpoint: IC50
testValue: > 10200 nM
//
molecule: OC(c1cn(-c2ccc(OCC(F)(F)F)nc2)nn1)c1c(C2CC2)sc2cncn12 (racemic)
reportedEndpoint: IC50
testValue: > 10200 nM
//
molecule: CCc1sc2cncn2c1C(O)c1cn(-c2ccc(NC(=O)C(C)(C)C)cc2)nn1 (racemic)
reportedEndpoint: IC50
testValue: > 10200 nM
//
molecule: CCc1sc2cncn2c1C(O)c1cn(-c2ccc(NC(=O)N3CCOCC3)cc2)nn1 (racemic)
reportedEndpoint: IC50
testValue: 7720 nM
//
molecule: CC(C)(C)OC(=O)Nc1ccc(-n2cc(C(O)c3c(-c4ccccc4)sc4cncn34)nn2)cc1 (racemic)
reportedEndpoint: IC50
testValue: > 10200 nM
//
molecule: O[C@@H](c1cnn(-c2ccccc2)c1)c1c(C2CC2)sc2cncn12 [Example 100a]
reportedEndpoint: IC50
testValue: 2450 nM

The reported value for OC(c1cn(-c2ccc(OCC3CC3)cc2)nn1)c1c(C2CC2)sc2cncn12 (racemic) in terms of IC50 is > 10200 nM

The reported value for COc1ccc(-n2cc(C(O)c3c(C4CC4)sc4cncn34)nn2)nc1OC (racemic) in terms of IC50 is > 10200 nM

The reported value for COc1c(F)cc(-n2cc(C(O)c3c(C4CC4)sc4cncn34)nn2)cc1Cl (racemic) in terms of IC50 is > 10200 nM

The reported value for OC(c1cn(-c2ccc(Cl)cc2)nn1)c1c(C2CC2)sc2cncn12 (racemic) in terms of IC50 is > 10200 nM

The reported value for Cn1cc(-n2cc(C(O)c3c(C4CC4)sc4cncn34)nn2)cn1 (racemic) in terms of IC50 is > 10200 nM
